Attribute: O.D.450 (normalized)
Tested on: pellicle coated bovine enamel
protocol text: Phage ELISA on pellicle coated bovine enamel (Example 6)
Format: binding, human
conditions: 10^11 pfu phage, 30 min in vivo pellicle on bovine enamel, normalized to an internal control
Please give only the number in your answer, with no unit.

The reported O.D.450 (normalized) of the sequence DTIHPNKMKSPSSPL (Synthetic oral-surface binding peptide) [DenP26] was 1.039

Value of O.D.450 (normalized) reported for the sequence IPWWNIRAPLNAGGG [Control, reference compound] is 1.000

Looking up EFPYYNDNPPNPERHTLR (Synthetic oral-surface binding peptide) [DenP7] , I see its O.D.450 (normalized) listed as 1.500

Lookup result for VEPATKNMREARSSTQMRRI (Synthetic oral-surface binding peptide) [DenP4] ; measured O.D.450 (normalized): 1.421

GET /value?item= TTYHYKNIYQESYQQRNPAV (Synthetic oral-surface binding peptide) [DenP3] &field=O.D.450 (normalized) returns 2.495

GET /value?item= TMTNHVYNSYTEKHSSTHRS (Synthetic oral-surface binding peptide) [DenP2] &field=O.D.450 (normalized) returns 1.951

Lab note: measured O.D.450 (normalized) of QVPDYLSPTHQKKAFLEIPT (Synthetic oral-surface binding peptide) [DenP29] was 0.976

Noted for ANELSTYAQTNPGSG (Synthetic oral-surface binding peptide) [DenP25] : its O.D.450 (normalized) reads 0.909

---

Recorded O.D.450 by entry
protocol text: Phage ELISA, bovine polished enamel-binding assay
conditions: over 10^10 pfu phage, A450
A bare number is all that is needed in reply.

Examples with their reported O.D.450 follow.
{"ordered residues": "NTCQPTKNATPCSA (Synthetic oral-surface binding peptide) [BoEn P6]", "O.D.450": 0.83}
{"ordered residues": "EPPTRTRVNNHTVTVQAQQH (Synthetic oral-surface binding peptide) [BoEn P2]", "O.D.450": 0.641}
{"ordered residues": "THNMSHFPPSGHPKRTAT (Synthetic oral-surface binding peptide) [BoEn P8]", "O.D.450": 2.02}
{"ordered residues": "GYCLRGDEPAVCSG (Synthetic oral-surface binding peptide) [BoEn P3]", "O.D.450": 0.665}

Reported O.D.450 ( NFCETQLDLSVCTV (Synthetic oral-surface binding peptide) [BoEn P5] ) = 0.797

---

Item-by-item account of O.D.450 (normalized)
System: pellicle coated bovine enamel
protocol text: Phage ELISA on pellicle coated bovine enamel (Example 6)
Format: binding, human
conditions: 10^11 pfu phage, 30 min in vivo pellicle on bovine enamel, normalized to an internal control
I only need the number, thanks.

These solved cases illustrate the format of a correct answer.
{"ordered residues": "SEARARTFNDHTTPMPII (Synthetic oral-surface binding peptide) [DenP14]", "O.D.450 (normalized)": 2.498}
{"ordered residues": "TYQGVPSWPAVIDDAIRR (Synthetic oral-surface binding peptide) [DenP19]", "O.D.450 (normalized)": 1.052}
{"ordered residues": "HKNAIQPVNDATTLDTTM (Synthetic oral-surface binding peptide) [DenP9]", "O.D.450 (normalized)": 1.364}

// below: O.D.450 (normalized) requested for another sequence
Note to self: O.D.450 (normalized) recorded for QAAQVHMMQHSRPTT (Synthetic oral-surface binding peptide) [DenP13] was 0.845

---

protocol text: Phage ELISA, bovine enamel-binding assay
conditions: over 10^10 pfu phage, unpolished bovine enamel, A450
assay readout: O.D.450
Give the value as a plain number.

The value of O.D.450 measured for the sequence VGTMKQHPTTTQPPRVSATN (Synthetic oral-surface binding peptide) [BoEn 9] turned out to be 0.568

response.value for AANPHTEWDRDAFQLAMPPK (Synthetic oral-surface binding peptide) [BoEn 1] (field: O.D.450) = 1.402

Summary for this sequence, LNDQRKPGPPTMPTHSPAVG (Synthetic oral-surface binding peptide) [BoEn 5] : O.D.450 is 0.944

Query NTCATSPNSYTCSN (Synthetic oral-surface binding peptide) [BoEn 6] yields O.D.450 of 2.38

For reference, reported O.D.450 for YSETPNDQKPNPHYKVSGTK (Synthetic oral-surface binding peptide) [BoEn 10] stands at 3.942

Kindly note the recorded O.D.450 for SDCTAGLVPPLCAT (Synthetic oral-surface binding peptide) [BoEn 7] , which is 0.892

---

Tested on: pellicle coated bovine enamel
protocol text: Phage ELISA on pellicle coated bovine enamel (Example 6)
Type: binding, human
conditions: 10^11 pfu phage, 30 min in vivo pellicle on bovine enamel, normalized to an internal control
assay readout: O.D.450 (normalized)
Give your answer as a number; write no unit.

Before answering, review these 5 worked examples.
{"ordered residues": "NGNNHTDIPNRSSYTGGSFA (Synthetic oral-surface binding peptide) [DenP1]", "number": 1.002}
{"ordered residues": "ELDHDSRHYMNGLQRKVT (Synthetic oral-surface binding peptide) [DenP15]", "number": 1.112}
{"ordered residues": "VNPNWVETQALHQPPGNT (Synthetic oral-surface binding peptide) [DenP20]", "number": 1.298}
{"ordered residues": "SNATMYNIQSHSHHQ (Synthetic oral-surface binding peptide) [DenP24]", "number": 0.979}
{"ordered residues": "AVVPADLNDHANHLS (Synthetic oral-surface binding peptide) [DenP10]", "number": 1.619}

// O.D.450 (normalized) (pellicle coated bovine enamel) for FDGIGLGTATRHQNR (Synthetic oral-surface binding peptide) [DenP12] = 2.079

---

Test system: pellicle coated bovine enamel
protocol text: Phage ELISA on pellicle coated bovine enamel (Example 6)
Format: binding, human
conditions: 10^11 pfu phage, 30 min in vivo pellicle on bovine enamel, normalized to an internal control
assay readout: O.D.450 (normalized)
Lab note: jot down the number only; don't add units.

Worked examples follow.
{"ordered residues": "TNDLHANPFTGTYIAPDPTS (Synthetic oral-surface binding peptide) [DenP30]", "O.D.450 (normalized)": 1.082}
{"ordered residues": "HDPNHLTHQARTIYRNANHT (Synthetic oral-surface binding peptide) [DenP23]", "O.D.450 (normalized)": 1.236}
{"ordered residues": "HKNENIMQYNVNDRWHITPA (Synthetic oral-surface binding peptide) [DenP32]", "O.D.450 (normalized)": 1.441}

# ---- query sequence ----
Reading of O.D.450 (normalized) for APPTYQTASYPHNLPSKRKM (Synthetic oral-surface binding peptide) [DenP28] with pellicle coated bovine enamel: 1.203
